Biological target: NDM-1 (Klebsiella pneumoniae, UniProt C7C422)
Sequence (C7C422 29-270, looked up, species assumed): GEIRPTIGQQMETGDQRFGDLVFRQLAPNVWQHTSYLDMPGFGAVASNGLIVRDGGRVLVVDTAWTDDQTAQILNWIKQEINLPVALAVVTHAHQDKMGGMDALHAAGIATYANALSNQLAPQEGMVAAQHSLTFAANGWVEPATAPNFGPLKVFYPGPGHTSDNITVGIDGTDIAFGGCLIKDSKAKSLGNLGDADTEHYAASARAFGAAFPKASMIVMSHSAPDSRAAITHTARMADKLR
Test: Enzyme activity: determination of IC50, fluorescence assay with CCF2-FA substrate
Format: biochemical
Conditions: enzyme 1 pM, CCF2-FA 1.25 μM, 2 hours at 25° C.; read-out: NDM1 IC50
pIC50: −log10 of the molar value.
pIC50 vs 7: at or above is 1.0, below is 0.0.

Ask: Is the recorded value of pIC50 equal to or greater than 7 for this compound? CC(C)C[C@H](C(=O)O)[C@H](Cc1ccc(-c2ccc([C@@H]3OC(=O)N[C@@H]3C)cc2)cn1)c1nn[nH]n1 [Example 173]
Result: 1.0

Ask: Is the recorded value of pIC50 equal to or greater than 7 for this compound? O=C(O)[C@@H](C1CCCC1)[C@H](Cc1ccccc1)c1nnn[nH]1 [Example 17]
Result: 1.0

Ask: Is the recorded value of pIC50 equal to or greater than 7 for this compound? CC(C)[C@H](C(=O)O)[C@H](Cc1ccc(NCCO)cn1)c1nnn[nH]1 [Example 139]
Result: 1.0

Ask: Is the recorded value of pIC50 equal to or greater than 7 for this compound? CCC[C@H](C(=O)O)[C@H](Cc1ccc(N2CCC[C@@H](N)C2)cc1)c1nn[nH]n1 [Example 229]
Result: 0.0

Ask: Is the recorded value of pIC50 equal to or greater than 7 for this compound? CCC[C@H](C(=O)O)[C@H](Cc1ccc(-c2cccc(C(N)=O)c2)cc1)c1nn[nH]n1 [Example 201]
Result: 1.0

Would you kindly look at the next entry?
Ask: Is the recorded value of pIC50 equal to or greater than 7 for this compound? CCC[C@@H](C(=O)O)[C@H](Cc1ccccc1)c1nnn[nH]1 [Example 5]
Result: 0.0

* * *

Molecular target: VIM-1 (Pseudomonas aeruginosa, UniProt A0A0F7KYQ8)
Assay: Enzyme activity: determination of IC50, fluorescence assay with CCF2-FA substrate
Assay type: biochemical
Details: VIM-1 enzyme 30 pM, CCF2-FA 1.25 μM, 2 hours at 25° C.; read-out: VIM1 IC50
VALUE KIND: IC50 (nM)
One number for each entry, in nM.

Ask: Fill in the blank: the reported IC50 of CCC[C@H](C(=O)O)[C@H](Cc1ccc(CN2CCN(C)CC2)cc1)c1nn[nH]n1 is ____.
Result: 430

List IC50 for every entry below, keeping the order given.
1. CCC[C@H](C(=O)O)[C@H](Cc1cnc(N2CCNCC2)nc1)c1nnn[nH]1
2. CCC[C@H](C(=O)O)[C@H](Cc1ccc(C2CCN(C(=N)N)CC2)nc1)c1nnn[nH]1
3. CC(C)C[C@H](C(=O)O)[C@H](Cc1ccc(N2CC3(CN(C)C(=O)O3)C2)nc1)c1nnn[nH]1

Result:
1: 4.1; 2: 10; 3: 10

* * *

Test system: Escherichia coli expressing NDM-1 (CLB30005)
Assay: Antibiotic potentiation activity: synergistic concentration (MITC95) with imipenem, growth by OD600
Type: cell-based
Conditions: 95% inhibition of bacterial growth, strain CLB30005
VALUE KIND: NDM1 EC30005 MITC95 (µM)
One number for each entry, in µM.

# count of solved cases: 5
Ask: Fill in the blank: the reported NDM1 EC30005 MITC95 of CCC[C@H](C(=O)O)[C@H](Cc1ccc(-c2ccc3ncnn3c2)cc1)c1nnn[nH]1 is ____.
Result: 75

Ask: Fill in the blank: the reported NDM1 EC30005 MITC95 of CC(C)[C@H](C(=O)O)[C@H](Cc1ccccc1)c1nnn[nH]1 is ____.
Result: 4.7

Ask: Fill in the blank: the reported NDM1 EC30005 MITC95 of CCC[C@H](C(=O)O)[C@H](Cc1ccc(N2CCNCC2)nc1)c1nnn[nH]1 is ____.
Result: 6.2

Ask: Fill in the blank: the reported NDM1 EC30005 MITC95 of CCC[C@H](C(=O)O)[C@H](Cc1ccc(-c2ccc(CO)cc2)cc1)c1nn[nH]n1 is ____.
Result: 3.1

Ask: Fill in the blank: the reported NDM1 EC30005 MITC95 of COCCC[C@H](C(=O)O)[C@H](Cc1ccccc1)c1nnn[nH]1 is ____.
Result: 31

List NDM1 EC30005 MITC95 for every entry below, keeping the order given.
1. CCC[C@H](C(=O)O)[C@H](Cc1ccc(-c2ccc(N)nc2)cc1)c1nn[nH]n1
2. O=C(O)[C@@H](CC1CC1)[C@H](Cc1ccccc1)c1nnn[nH]1
3. O=C(O)[C@@H](C1CCOCC1)[C@H](Cc1ccccc1)c1nnn[nH]1
4. CCC[C@H](C(=O)O)[C@H](Cc1ccc(-c2cn(C)c(=O)n(C)c2=O)cc1)c1nn[nH]n1
5. CCC[C@H](C(=O)O)[C@H](Cc1ccc(-c2cncc(CN3CCCCC3)c2)cc1)c1nn[nH]n1

Result:
1: 4.7; 2: 12.5; 3: 12.5; 4: 18.8; 5: 25

List NDM1 EC30005 MITC95 for every entry below, keeping the order given.
1. CCC[C@H](C(=O)O)[C@H](Cc1ccc(-c2ccc(N3CCOCC3)nc2)cc1)c1nn[nH]n1
2. CCC[C@H](C(=O)O)[C@H](Cc1ccc(-c2ccc(N(C)C)nc2)cc1)c1nn[nH]n1
3. CCCC[C@@H](C(=O)O)[C@@H](Cc1ccc(-c2cn[nH]c2)cc1)c1nn[nH]n1
4. CC(C)=CCCC(C(=O)O)[C@H](Cc1ccccc1)c1nnn[nH]1 (stereo in doubt)

Result:
9.4
2.3
200
15.6

* * *

Molecular target: VIM-1 (Pseudomonas aeruginosa, UniProt A0A0F7KYQ8)
Assay: Enzyme activity: determination of IC50, fluorescence assay with CCF2-FA substrate
Type: biochemical
Conditions: enzyme 30 pM, CCF2-FA 1.25 μM, 2 hours at 25° C.; read-out: VIM1 IC50
So I've got a bunch of molecules here, and I need their IC50 values.
Please answer using the number first and the unit second.

Ask: Give the reported IC50 for CCCC[C@@H](C(=O)O)[C@@H](Cc1ccc(-c2cnn(-c3ccccc3)c2)cc1)c1nn[nH]n1 [Example 187] (system: VIM-1 (Pseudomonas aeruginosa, UniProt A0A0F7KYQ8)).
Result: 140 nM

Ask: Give the reported IC50 for CCC[C@H](C(=O)O)[C@H](Cc1ccc(NCc2cc(OC)cc(OC)c2)nc1)c1nnn[nH]1 [Example 144] (system: VIM-1 (Pseudomonas aeruginosa, UniProt A0A0F7KYQ8)).
Result: 15 nM

Ask: Give the reported IC50 for CCC[C@H](C(=O)O)[C@H](Cc1ccc(CN2CCNCC2)cc1)c1nnn[nH]1 [Example 55] (system: VIM-1 (Pseudomonas aeruginosa, UniProt A0A0F7KYQ8)).
Result: 19 nM

Ask: Give the reported IC50 for CCC[C@H](C(=O)O)[C@H](Cc1ccc(-c2ccc3ccnc(C#N)c3c2)nc1)c1nnn[nH]1 [Example 162] (system: VIM-1 (Pseudomonas aeruginosa, UniProt A0A0F7KYQ8)).
Result: 3.7 nM

Ask: Give the reported IC50 for CCC[C@H](C(=O)O)[C@H](Cc1ccc(-c2cccc(CN3CCOCC3)c2)cc1)c1nn[nH]n1 [Example 207] (system: VIM-1 (Pseudomonas aeruginosa, UniProt A0A0F7KYQ8)).
Result: 8 nM

Ask: Give the reported IC50 for CC(C)C[C@H](C(=O)O)[C@H](Cc1ccc(C2=CCNCC2)cn1)c1nn[nH]n1 [Example 170] (system: VIM-1 (Pseudomonas aeruginosa, UniProt A0A0F7KYQ8)).
Result: 22 nM

Ask: Give the reported IC50 for CCC[C@H](C(=O)O)[C@H](Cc1ccc(NCCO)nc1)c1nnn[nH]1 [Example 129] (system: VIM-1 (Pseudomonas aeruginosa, UniProt A0A0F7KYQ8)).
Result: 5.6 nM

Ask: Give the reported IC50 for CC(C)C[C@H](C(=O)O)[C@H](Cc1ccc(-c2ccc(S(N)(=O)=O)cc2)cn1)c1nn[nH]n1 [Example 175] (system: VIM-1 (Pseudomonas aeruginosa, UniProt A0A0F7KYQ8)).
Result: 12 nM

Ask: Give the reported IC50 for CC(C)C[C@H](C(=O)O)[C@H](Cc1ccc(OCCN)nc1)c1nnn[nH]1 [Example 135] (system: VIM-1 (Pseudomonas aeruginosa, UniProt A0A0F7KYQ8)).
Result: 6.1 nM

Ask: Give the reported IC50 for CC(C)C[C@H](C(=O)O)[C@@H](c1nnn[nH]1)[C@H](C)c1ccccc1 [Example 27] (system: VIM-1 (Pseudomonas aeruginosa, UniProt A0A0F7KYQ8)).
Result: 7.7 nM

List IC50 for every entry below, keeping the order given.
1. CCC[C@H](C(=O)O)[C@H](Cc1ccc(-c2ccc(C(=O)NC)cc2)cc1)c1nn[nH]n1 [Example 202]
2. CC(C)[C@H](C(=O)O)[C@H](Cc1csc(C2CCNC2)n1)c1nnn[nH]1 (stereo partly drawn) [Example 108]
3. O=C(O)[C@@H](C1CCCC1)[C@H](Cc1ccc(C2CCNC2)cc1)c1nnn[nH]1 (stereo partly drawn) [Example 79]
4. CCC[C@H](C(=O)O)[C@H](Cc1ccc(NCCN2CCCCC2)cc1)c1nn[nH]n1 [Example 217]
5. CCC[C@H](C(=O)O)[C@H](Cc1ccc(C#N)cn1)c1nnn[nH]1 [Example 84]
6. CCC[C@@H](C(=O)O)[C@H](Cc1ccccc1)c1nnn[nH]1 [Example 5]
7. CCC[C@H](C(=O)O)[C@H](Cc1ccc(-c2ccc(C(C)N3CCOCC3)cc2)cc1)c1nn[nH]n1 (stereo partly drawn) [Example 192]

Result:
2.3 nM
750 nM
2.3 nM
38 nM
47 nM
61 nM
29 nM
